Each item that follows carries a reported self-cleavage.
B1: HDV Ribozyme (parent)
chain: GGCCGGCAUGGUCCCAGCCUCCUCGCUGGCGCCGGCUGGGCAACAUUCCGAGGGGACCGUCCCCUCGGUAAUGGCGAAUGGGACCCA

variants of: B1; assay: self-cleavage, relative activity (ratio to wild type); higher = more cleavage; co-transcriptional
observable: self-cleavage

| variant annotation | observable | numeric result |
| --- | --- | --- |
| U27A G80U | self-cleavage | 0.231 |
| C24A C32A | self-cleavage | 0.106 |
| U23C C33U | self-cleavage | 0.697 |
| G55A U72G | self-cleavage | 0.415 |
| C4G U23C | self-cleavage | 0.208 |
| C24U A78C | self-cleavage | 0.196 |
| C19U G82C | self-cleavage | 0.0817 |
| G11U C62U | self-cleavage | 0.403 |
| C19U U20C | self-cleavage | 0.145 |
| U12G G39U | self-cleavage | 0.447 |
| C18G A45G | self-cleavage | 0.0639 |
